experiment: yeast display, Sf9 membrane polyspecificity reagent, FACS + sequencing; frameworks hold sequencing errors
measurement type: polyreactivity (PSR sort gate)

Here are 5 sequences together with their reported answers.
| seq text | polyreactivity (PSR sort gate) |
| --- | --- |
| QVQLVDSGGRLVHAGGSLRLSCAASGRTIYRNAMGLYRQAPGKERELVAAISSDDSTNYSDSVKGRFTISRDNAKNTVYFQMNSLKPEDTAVYYCNADYYYGYDYDYWGQGSQVTVSS | low polyreactivity |
| QVQLVESGGGLLQAGGSLRISCAASGSTFYYYAMGWYRQAPGKERELVAAISRGGGSTYYADSVKGRFTISRDNAKNTVYLQMNSLKPEDTAVYYCAARRVGGGFYTWRNPAYEYWGQGTQVTVSS | high polyreactivity |
| QVQLQESGGGLVQSGGSLRLSCAASGYISSWYPMGWYRHAPGKEREFVATIAPGATTYYADSVKGRFTISRDYAKNTVYLQMNSLKPEDTAVYYCAAGPENNDFYSYWGQGTQVTVSS | low polyreactivity |
| QVQLVESGGRLVQAGGRLRLSCAASGFTFGSYAMGWYRQAPGKERELVPSISSAGRTYYADSVKGRFTISRDNAKNTVYLQMNSLKPEDTAVYYCNTDSRVTIYDYDYWGQGTQVTVSS | low polyreactivity |
| QVQLVESGGGLVQAGGSLRLSCAASGSIFESYVMGWYRQAPGKERELVAAISYTGDDTYYADSVKGRFTISRDNAKNTVYLQMNSLKPEDTAVYYCNADNYYYYPWYVRALDSWGQGTQVTVSS | low polyreactivity |

For QVQLVESGGGLVQAGGSLRLSCAASGFTFPWNVMGGYRQAPGKERELVAAITYDGGGTYADSVKGRFTISRDNAKNTVYLQMNSLKPEDTAVYYCNADLIYGEEYDYWGQGTQVTVSS the sequence record lists polyreactivity (PSR sort gate) as low polyreactivity

For QVQLQESGAGLVQAGGSLRLTCAASGSIFLFYTMGWYRQAPVKEREFVAGITLGTTTYNADSVKGRFTISRDNVKNTVYLQMNSLKPEDTAVYYCAVAVGHYTEFWYWGQGTQVTMSS the sequence record lists polyreactivity (PSR sort gate) as high polyreactivity

For QVQLVESGGGLVQAGGSLRLSCAASGRTFYGNAMGWYRQAPGNERELVAAITTGGGNTYYADSVKGRFTISRDNAKNTVYLQMNSLKPDDTAVYYCAAYERKFYTVSRWYKLDYWGQGTQVTVSS the sequence record lists polyreactivity (PSR sort gate) as high polyreactivity

For QVQLGESGGGLVQAGGSLRLSCAASGRIFQHNTMGWYRQAPGKEREFVAAIRRSGGSTYYADSVKGRFTISRDNAKNTVYLQMNSLKPEDTAVYYCAARDYPTGTRRWGGGDSWGQGTQVTLSS the sequence record lists polyreactivity (PSR sort gate) as low polyreactivity

---

experiment: yeast display, Sf9 membrane polyspecificity reagent, FACS + sequencing; frameworks hold sequencing errors
measurement type: polyreactivity (PSR sort gate)

Here are 7 sequences together with their reported answers.
| seq text | experimental value |
| --- | --- |
| QVQLVESGGGLVQAGGSLRLSCAASGFIFTKNAIGWYRQAPGKERDLVDAISGTGGSTYYADSVKGRFTISRDNAKNTVYLKMNSLKPEDTAVYYCASRRYRLFSTGGQPGYYWGQGTQVTVSS | high polyreactivity |
| QVQLVESGGGLVQAGGSLRLSCAASGRTFIGYNMGWYRQAPGKERELVAAITWNGGRTYYADSVKGRFTISRDNAKNTVYLQMNSLKPEDTAVYYCAAPRRVVIGGGDYWGQGTQVTVSS | high polyreactivity |
| QVQLVESGGGLVQAGGSRRLSCAASGRIICVYAMGWYRQAPGNERDLVAAITIGGSTYYADSVKGRFTISRDNAMNTFYLQMNSLKPEDTAVYYCNRRYNWYLHHYDYWGQGTQVTVSS | high polyreactivity |
| QVQLVESGGGLVQAGGSLRLSCAASGRFLVLNAMGWYRQAPAKERELVADLTSVGSTYYADSVKGRFTISRDNAKNTVDLQMNSLKPEDTAVYYFAADWNTYPDYQQSYFVSYEYNYWGQGTQVTVSS | low polyreactivity |
| QLQLVQSGGGLVQAGGSLRLSCASSGRTFTPNARGWYSQAPGKEREMVAAISWRGGSTYYADAVMGRFTISRVNGKYTVYLEMKSLKPEDTGVYYCKKRSDKSYTRTEYDNWRQGTQVTVSS | high polyreactivity |
| QVQLVESGGGLVQAGGSLRLSCAASGSIFGGYALGWYRQAPGKERELVAAISKTGGTTYYADSVKGRFTISRDNALNTVYLQMNSLKPEDTAVYYWNAPKRYYGSAYGYGYWGQGTQVTVSS | high polyreactivity |
| QVQLVESGGGLVQAGGSLRLSCAASGRISSSYAMGWYRQAPGKEREFVAGITSIGGRTYYADSVKGRFTISRDNAKNTVYLQMNSLKPEDTAVYYCATTSSWRYGYWGQGTQVTVSS | high polyreactivity |

For QVQLVESGGGLVQAGGSLRLSCASSGRIYVYTMGWYRQAPGKERELVATITRSGGSTYYADSVKGRFTISRDNAKNTVYLQMNSLKPEDTAVYYCNAVGRFTPYSSRREYDYWGQGTQVTVSS the sequence record lists polyreactivity (PSR sort gate) as low polyreactivity

---

assay: yeast display, Sf9 membrane polyspecificity reagent, FACS + sequencing; frameworks hold sequencing errors
measurement type: polyreactivity (PSR sort gate)

Here are 6 sequences together with their reported answers.
| seq text | polyreactivity (PSR sort gate) |
| --- | --- |
| QVQLVESGGGLVQAGGSLRLTCAASGFTFHSYAMGWYRQSPGTERELVAAISARGGSTYYADSVKGRLTISRDNAKNTVYLQMNSLKPEDTAFYYCAAYSYQVRFYYWGQGTQVTVSS | high polyreactivity |
| QVQLVESGGGLVQAGGSLRLSCAASGSIFTYNAMGWYRQAPGKERELVAAIRLSGGSTYYADSVKGRFTISRDNAKNTVYLQMNSLKPEDTAVYYCATEYDYGSWYPDGWGIFDYWGQGTQVTVSS | low polyreactivity |
| QVQLVESGGGLVQAGGSLRLSCAASGRIFTVYAMGWYRQAPGKERELVAAISRGGSTYADSVKGRFTISRDNAKNTVYLQMNSLKPEDTAVYYCAAVNFRKGEDYWGQGTQVTVSS | high polyreactivity |
| QVQLVESGGGLVQAGGSLRLSCAPSGSIFPSYAMGWYRQAPGKERELVAAISRSAGSTYYADSVKGRFTISRDNAKNTVYLQMNSLKPEDTAVYYCAADGYSSRYGYDYWGQGTQVTVSS | low polyreactivity |
| QVQLVESGGGLVQAGGSLRLSCSACGFIFPSYVMGWYRQAPGKERELVATISRSGGSTYYADSVKGRFTISRDNAKNTVYLQMNSLKPEDTAVYYCATRRRCRYSPYSPYDYWGQGTQVTVTS | high polyreactivity |
| QVQLVESGGGLVQAGGSLRLSCAASGSTFDYNTMGWYRQAPGKERELVADITLRGASTYYADSVKGRFTISRDNAKNTVYLLMNSLKPEDTAVYYCNADYYWGTYANFDYWGQGTQVTVSS | low polyreactivity |

Next up:
For QVQLVESGGGLVQAGGSLRLSCAASGFIFRKYAMGWYRQAPGKERELVAAITSSGGSTYYAGSVKGRFTISRDNAKNTVYLQMNSLKPEDTAVYYCAARLKQSGHDYWGQGTQVTVSS the sequence record lists polyreactivity (PSR sort gate) as high polyreactivity

---

assay: yeast display, Sf9 membrane polyspecificity reagent, FACS + sequencing; frameworks hold sequencing errors
measurement type: polyreactivity (PSR sort gate)

Here are 4 sequences together with their reported answers.
| seq text | polyreactivity (PSR sort gate) |
| --- | --- |
| QVQLVESGGGLVQAGGSLRLSCAASGSTIGRYAMGWYRQAPGKERELVASIRSSGSTYYADSVKGRFTISRDNAKNTVYLQMNSLKPEDTAVYYCNRGVYYGSRYNYWGQGTQVTVSS | high polyreactivity |
| QEQLQESGGGLEQPGGSLRLSCAASGSISGSSTMGWYRQAQGKERELVASIAVGANTNYADSAKGRFTISRDNAKNPVYLQMNSLKPEDTAVYYCAVDYYIYYFHYWGQATQVTVSS | high polyreactivity |
| QVQLVESGGGLVQAGGSLRLSCAASGITFYLYDMGWYRQAPGIERELVASITSDGSTDYADSVKGRFTISRDNAKNTVYLQMNSLKPEDTAVYYCNARVTYSWYRFGRSGDDSWGHGTQVTVSS | low polyreactivity |
| QVQLVESGGGLVQSGGSLRLSCAASGSIFYLYAMGWYRQAPGKERELVAAISWTGGSSYYADSVKGRFTISRDNAKNTVYLQMNSLKPEDTAVYYCAADRVLGGPQPGGSSFRGDYWGQGTQVTVSS | low polyreactivity |

Next up:
For QVQLVESGGGLVQAGGSLRLSCAASGSTFQYYAMGWYRQAPGKERELFAVITGAGGTNYADSVKGRFTISRDNAKNTVYLQMNSLKPEDTAVYYCAARSPGTRWGDYDYWGQGTQVTVSS the sequence record lists polyreactivity (PSR sort gate) as low polyreactivity

# credit: the nanobody polyreactivity screen of Harvey et al. (2022)
